I'd appreciate it if you could supply % of fluorescence positive cells values for the items below.
Target: T1, recombinant hIL-18Rα extracellular domain (human, UniProt Q13478 22-329, biotin label (selection) or fluorescent probe (single-clone FACS), sites not given)
T1 construct: extracellular domain; also called hIL-18Rα ECD; hIL-18Rα-ECD
T1 sequence (looked up): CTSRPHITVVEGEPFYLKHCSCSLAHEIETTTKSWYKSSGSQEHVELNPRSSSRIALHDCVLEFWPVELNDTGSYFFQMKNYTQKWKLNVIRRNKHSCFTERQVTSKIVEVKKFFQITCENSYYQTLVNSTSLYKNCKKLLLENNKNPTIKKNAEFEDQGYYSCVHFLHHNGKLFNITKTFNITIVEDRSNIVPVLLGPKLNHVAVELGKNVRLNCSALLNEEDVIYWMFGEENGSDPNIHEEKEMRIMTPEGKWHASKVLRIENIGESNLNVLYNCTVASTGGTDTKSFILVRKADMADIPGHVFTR
Experiment: single-clone FACS, yeast display, 10 nM labelled hIL-18Rα ECD
Express your answer in %, writing the number without its unit.

Inquiry: Recall and state the measured % of fluorescence positive cells for IL-18 variant polypeptide M39 (ligand) YFPKLRSKLSVIRNLNDQVLFIDQGNRPLFEDMTDSDCRDNAPRTIFIISMYKWSPGRGMAVTISVKCEKISTLSCENKIISFKEMNPPDVIKDTKSDIIFFQLSVPGHDNKMQFESSSYEGYFLACEKERDLFKLILKKEDELGDRSIMFTVQNED .
Reply text: 76.5

Inquiry: Recall and state the measured % of fluorescence positive cells for SEQ ID NO 32 (ligand) YFPKLRSKLSVIRNLNDQVLFIDQGNRPLFEDMTDSDCRDNAPRTIFIISMYKHSSRRGMAVTISVKCEKISTLSCENKIISFKEMNPPDIIKDTKSDIIFFQYSVPGHDNKMQFESSSYEGYFLACEKERDLFKLILKKEDELGDRSIMFTVQNED .
Reply text: 88.9

Reference for the values: patent US20260092093A1
